Target: cyclooxygenase-2 (Homo sapiens)
Construct: Cells used for whole cell assays, and from which microsomes were prepared for microsomal assays, were human osteosarcoma 143 cells; endogenous in cells; host or cells: human osteosarcoma 143 cells (whole cells or microsomes)
Sequence (P35354 18-604): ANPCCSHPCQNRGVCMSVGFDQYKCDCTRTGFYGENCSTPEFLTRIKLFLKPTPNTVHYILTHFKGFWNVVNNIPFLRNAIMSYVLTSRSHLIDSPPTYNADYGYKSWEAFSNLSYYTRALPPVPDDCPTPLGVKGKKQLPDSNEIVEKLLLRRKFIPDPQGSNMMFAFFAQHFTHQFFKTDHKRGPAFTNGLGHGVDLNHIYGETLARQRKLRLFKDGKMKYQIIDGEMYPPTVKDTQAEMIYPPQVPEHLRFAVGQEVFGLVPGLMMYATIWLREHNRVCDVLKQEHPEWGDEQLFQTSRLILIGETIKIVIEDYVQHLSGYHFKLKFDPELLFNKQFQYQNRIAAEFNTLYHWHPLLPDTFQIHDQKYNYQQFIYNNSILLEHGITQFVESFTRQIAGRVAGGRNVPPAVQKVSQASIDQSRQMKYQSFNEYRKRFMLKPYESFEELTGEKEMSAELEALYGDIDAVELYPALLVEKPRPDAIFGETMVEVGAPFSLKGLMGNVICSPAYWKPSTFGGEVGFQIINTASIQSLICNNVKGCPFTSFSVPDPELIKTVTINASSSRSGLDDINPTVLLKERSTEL
Assay: Inhibition of cyclooxygenase-2 activity (PGE2 synthesis in response to arachidonic acid, radioimmunoassay; whole cell and microsomal assays)
Format: cell-based
Conditions: table of prepared examples; read-out: COX-2 IC50
pIC50: −log10 of the molar value.
Measured Attribute: pIC50

# Compound String, Recorded Measurement
data = [
    ("Cc1ccccc1Sc1cc2c(cc1NS(C)(=O)=O)CCC2=O", 7.00),
    ("CS(=O)(=O)Nc1cc2c(cc1Oc1ccc(Br)cc1)C(=O)CC2", 8.05),
    ("CS(=O)(=O)Nc1cc2c(cc1Sc1ccc(I)cc1)C(=O)CC2", 8.00),
]

###

Test system: paw edema
Assay: Rat paw edema assay (carrageenan)
Assay type: in vivo
Conditions: po, 1 hr before carrageenan; paw volume 3 hr later
Catalogue of Rat Paw EDEMA ED30 values

# Compound, Target, Rat Paw EDEMA ED30
rows = [
    ("CS(=O)(=O)Nc1cc2c(cc1Oc1ccc(F)cc1F)C(=O)CC2 [Compound 3, Flosulide, reference compound]", "paw edema", "1.1 ± .4 mpk"),
    ("CS(=O)(=O)Nc1cc2c(cc1Sc1ccc(F)cc1F)C(=O)CC2", "paw edema", "0.3 ± .1 mpk"),
    ("COc1ccc2c(c1)c(CC(=O)O)c(C)n2C(=O)c1ccc(Cl)cc1 [INDOMETHACIN, Indomethacin, reference compound]", "paw edema", "1.1 ± .3 mpk"),
    ("CS(=O)(=O)Nc1cc2c(cc1Oc1ccc(Cl)cc1Cl)C(=O)CC2", "paw edema", "0.22 mpk"),
]

###

Entries and their measured IC50 follow.
Target: cyclooxygenase-2 (Homo sapiens)
Construct: Cells used for whole cell assays, and from which microsomes were prepared for microsomal assays, were human osteosarcoma 143 cells; endogenous in cells; host or cells: human osteosarcoma 143 cells (whole cells or microsomes)
Assay: Inhibition of cyclooxygenase-2 activity (PGE2 synthesis in response to arachidonic acid, radioimmunoassay; whole cell and microsomal assays)
Format: cell-based
Settings: table of prepared examples; read-out: COX-2 IC50

# Compound, Target, Unit Of Measure, IC50
records = [
    ("Cc1ccc(Sc2cc3c(cc2NS(C)(=O)=O)CCC3=O)cc1", "cyclooxygenase-2 (Homo sapiens)", "nM", 50),
    ("CS(=O)(=O)Nc1cc2c(cc1Sc1ccc(C(F)(F)F)cc1)C(=O)CC2", "cyclooxygenase-2 (Homo sapiens)", "nM", 50),
    ("C=Cc1ccc(Sc2cc3c(cc2NS(C)(=O)=O)CCC3=O)cc1", "cyclooxygenase-2 (Homo sapiens)", "nM", 100),
    ("CS(=O)(=O)Nc1cc2c(cc1Sc1ccc(Cl)cc1)C(=O)CC2", "cyclooxygenase-2 (Homo sapiens)", "nM", 100),
    ("CS(=O)(=O)Nc1cc2c(cc1Sc1ccc(F)cc1)C(=O)CC2", "cyclooxygenase-2 (Homo sapiens)", "nM", 100),
    ("CS(=O)(=O)Nc1cc2c(cc1Sc1ccc(Cl)cc1F)C(=O)CC2", "cyclooxygenase-2 (Homo sapiens)", "nM", 13),
    ("CS(=O)(=O)Nc1cc2c(cc1Sc1ccccc1)C(=O)CC2", "cyclooxygenase-2 (Homo sapiens)", "nM", 50),
    ("CS(=O)(=O)Nc1cc2c(cc1Sc1ccc(F)cc1Cl)C(=O)CC2", "cyclooxygenase-2 (Homo sapiens)", "nM", 11),
    ("CS(=O)(=O)Nc1cc2c(cc1Oc1ccccc1)C(=O)CC2 [Compound 1, reference compound]", "cyclooxygenase-2 (Homo sapiens)", "nM", 30),
]

###

Assay: Monkey pharmacokinetics (Cmax, t1/2)
Assay type: in vivo
Details: in vivo, n = 2, estimated, read-out: t½ Monkey (n = 2) (Estimated)

# Compound String, half-life
data = [
    ("CS(=O)(=O)Nc1cc2c(cc1Sc1ccc(F)cc1F)C(=O)CC2", "> 9 h"),
]

###

Target: cyclooxygenase-2 (Homo sapiens)
Construct: Cells used for whole cell assays, and from which microsomes were prepared for microsomal assays, were human osteosarcoma 143 cells; endogenous in cells; host or cells: human osteosarcoma 143 cells (whole cells or microsomes)
Assay: Inhibition of cyclooxygenase-2 activity (PGE2 synthesis in response to arachidonic acid, radioimmunoassay; whole cell and microsomal assays)
Format: cell-based
Conditions: human osteosarcoma 143 cells; PGE2 synthesis; read-out: COX-2 IC50
pIC50: −log10 of the molar value.
Measured Attribute: pIC50

# Compound String, Target, Recorded Measurement
rows = [
    ("CS(=O)(=O)Nc1cc2c(cc1Oc1ccc(Cl)cc1Cl)C(=O)CC2", "cyclooxygenase-2 (Homo sapiens)", 8.10),
]

###

The following compounds are shown together with reported pIC50 values.
Target: cyclooxygenase-1 (Homo sapiens)
Construct: human U-937 cells (which specifically express cyclooxygenase-1); endogenous in cells
Sequence (P23219 24-599): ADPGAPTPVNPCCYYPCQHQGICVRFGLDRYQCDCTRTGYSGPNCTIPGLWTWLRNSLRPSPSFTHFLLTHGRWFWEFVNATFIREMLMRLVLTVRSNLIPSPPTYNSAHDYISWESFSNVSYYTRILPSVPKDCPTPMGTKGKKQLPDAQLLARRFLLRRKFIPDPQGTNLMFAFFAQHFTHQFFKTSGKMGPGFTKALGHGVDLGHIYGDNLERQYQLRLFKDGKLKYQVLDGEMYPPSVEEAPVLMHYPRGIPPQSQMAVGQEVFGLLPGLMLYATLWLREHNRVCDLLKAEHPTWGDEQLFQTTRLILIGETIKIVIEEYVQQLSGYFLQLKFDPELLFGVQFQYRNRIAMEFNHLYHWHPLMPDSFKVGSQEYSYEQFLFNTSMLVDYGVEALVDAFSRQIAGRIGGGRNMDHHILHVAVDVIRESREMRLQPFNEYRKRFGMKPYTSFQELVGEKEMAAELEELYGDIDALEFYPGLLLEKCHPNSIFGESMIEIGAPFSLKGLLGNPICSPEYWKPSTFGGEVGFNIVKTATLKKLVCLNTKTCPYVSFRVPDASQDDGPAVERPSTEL
Experiment: Inhibition of cyclooxygenase-1 activity (PGE2 synthesis in response to arachidonic acid, radioimmunoassay; whole cell and microsomal assays)
Conditions: table of prepared examples; read-out: COX-1 IC50
pIC50: −log10 of the molar value.

# Compound, pIC50
rows = [
    ("CS(=O)(=O)Nc1cc2c(cc1Sc1ccc(F)cc1F)C(=O)CC2", "< 5.00"),
    ("CS(=O)(=O)Nc1cc2c(cc1Sc1ccccc1)C(=O)CC2", "< 4.00"),
    ("CS(=O)(=O)Nc1cc2c(cc1Oc1ccc(F)cc1F)C(=O)CC2 [Compound 3, Flosulide, reference compound]", "< 4.30"),
    ("CS(=O)(=O)Nc1cc2c(cc1Oc1ccc(Cl)cc1Cl)C(=O)CC2", "< 4.00"),
]
